biological target: PI3K p110 beta/p85 alpha (Homo sapiens); experiment: Inhibition of PI3KCbeta/PIK3R1 (unknown origin)
Sequence (P27986 whole entry): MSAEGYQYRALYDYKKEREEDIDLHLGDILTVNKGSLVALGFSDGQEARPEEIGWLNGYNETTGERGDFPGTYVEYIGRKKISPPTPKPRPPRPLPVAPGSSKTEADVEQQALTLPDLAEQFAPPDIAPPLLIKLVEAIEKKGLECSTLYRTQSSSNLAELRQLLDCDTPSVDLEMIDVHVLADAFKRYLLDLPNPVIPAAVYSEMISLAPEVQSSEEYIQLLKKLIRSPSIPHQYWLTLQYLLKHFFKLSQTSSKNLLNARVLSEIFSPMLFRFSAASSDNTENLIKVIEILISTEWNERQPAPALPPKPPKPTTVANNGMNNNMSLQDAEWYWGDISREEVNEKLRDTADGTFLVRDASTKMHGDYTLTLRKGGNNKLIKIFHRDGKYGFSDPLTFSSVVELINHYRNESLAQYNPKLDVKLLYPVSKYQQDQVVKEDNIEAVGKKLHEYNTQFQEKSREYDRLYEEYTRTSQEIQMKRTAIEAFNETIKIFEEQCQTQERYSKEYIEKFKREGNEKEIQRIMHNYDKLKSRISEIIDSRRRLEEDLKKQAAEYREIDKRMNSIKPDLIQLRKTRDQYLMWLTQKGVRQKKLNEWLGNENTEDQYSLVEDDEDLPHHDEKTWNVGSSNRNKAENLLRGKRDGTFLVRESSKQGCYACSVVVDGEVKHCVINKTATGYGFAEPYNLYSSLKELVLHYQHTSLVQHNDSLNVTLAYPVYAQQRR
Sequence (P42338 whole entry): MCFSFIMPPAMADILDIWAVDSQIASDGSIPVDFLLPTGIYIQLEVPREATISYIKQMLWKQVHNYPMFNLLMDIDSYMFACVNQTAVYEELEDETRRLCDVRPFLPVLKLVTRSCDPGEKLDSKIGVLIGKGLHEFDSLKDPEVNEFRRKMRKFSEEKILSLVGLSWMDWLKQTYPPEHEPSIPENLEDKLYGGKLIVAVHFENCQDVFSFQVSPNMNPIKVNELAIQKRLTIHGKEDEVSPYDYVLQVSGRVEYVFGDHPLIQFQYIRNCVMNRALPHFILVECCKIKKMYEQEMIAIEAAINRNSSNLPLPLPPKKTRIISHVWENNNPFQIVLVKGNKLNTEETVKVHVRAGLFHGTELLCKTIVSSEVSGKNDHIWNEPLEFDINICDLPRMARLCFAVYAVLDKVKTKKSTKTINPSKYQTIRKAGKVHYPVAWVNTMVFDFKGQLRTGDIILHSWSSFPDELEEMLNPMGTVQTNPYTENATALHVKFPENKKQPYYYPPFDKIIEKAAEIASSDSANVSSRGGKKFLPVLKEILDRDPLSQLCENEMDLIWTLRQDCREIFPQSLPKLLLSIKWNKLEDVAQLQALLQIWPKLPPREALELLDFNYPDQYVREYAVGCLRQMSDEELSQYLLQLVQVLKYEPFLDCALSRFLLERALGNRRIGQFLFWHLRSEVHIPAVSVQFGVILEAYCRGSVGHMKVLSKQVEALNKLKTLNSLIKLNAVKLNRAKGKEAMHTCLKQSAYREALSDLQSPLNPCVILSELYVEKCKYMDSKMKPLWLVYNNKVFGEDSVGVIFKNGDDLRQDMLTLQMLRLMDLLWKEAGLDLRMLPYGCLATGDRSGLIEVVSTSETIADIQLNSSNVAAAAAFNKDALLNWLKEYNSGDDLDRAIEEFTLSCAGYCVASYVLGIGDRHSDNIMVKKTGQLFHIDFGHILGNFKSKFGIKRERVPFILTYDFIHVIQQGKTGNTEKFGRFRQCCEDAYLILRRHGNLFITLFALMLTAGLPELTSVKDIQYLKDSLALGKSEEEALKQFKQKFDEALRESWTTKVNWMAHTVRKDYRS
quantity: IC50

Q) Record request: IC50 value, item COc1cc(OC)c(/C=C/C(=O)c2c(OC)cc(OC)c(C3CCN(C)CC3)c2O)c(OC)c1
A) > 10 µM

====

biological target: Phosphatidylinositol 4,5-bisphosphate 3-kinase catalytic subunit delta isoform (Homo sapiens); experiment: Inhibition of PI3Kdelta in human basophils assessed as reduction in IgE-induced degranulation by measuring CD203c expression level at 100 uM by fluorescence assay relative to control; set-up: scale not given: the % may be the effect or the level left
Response field label: string, one of Y (Activity strictly below 80%) or N.

Observe how each entry below is paired with its result.
smiles.data	assigned.class
COc1cc(OC)c(/C=C/C(=O)c2c(OC)cc(OC)cc2OC)c(OC)c1	Y
COc1cc(OC)c(C(=O)/C=C/c2cc(OC)c(OC)cc2OC)c(OC)c1	Y

Q) Lab note: Activity threshold 80%. Does this compound come in strictly under it? COc1ccccc1/C=C/C(=O)c1cc(OC)c(OC)cc1OC
A) Y

Q) Lab note: Activity threshold 80%. Does this compound come in strictly under it? COc1cc(OC)c(C(=O)/C=C/c2ccc(OC)c(O)c2)c(OC)c1
A) Y

Q) Lab note: Activity threshold 80%. Does this compound come in strictly under it? COc1cccc(OC)c1/C=C/C(=O)c1c(OC)cccc1OC
A) N

Q) Lab note: Activity threshold 80%. Does this compound come in strictly under it? COc1ccc(/C=C/C(=O)c2cc(OC)c(OC)cc2OC)cc1O
A) Y

Q) Lab note: Activity threshold 80%. Does this compound come in strictly under it? COc1ccc(C(=O)/C=C/c2c(OC)cc(OC)cc2OC)c(OC)c1
A) N

====

biological target: Phosphatidylinositol 4,5-bisphosphate 3-kinase catalytic subunit delta isoform (Homo sapiens) (UniProt O00329); assay: Inhibition of PI3Kdelta in human basophils assessed as reduction in IgE-induced degranulation by measuring CD63 expression level at 100 uM by flow cast assay relative to control; design: scale not given: the % may be the effect or the level left
# Activity listing for each entry below
Output spec: scalar in %, unitless text.

smiles.data	Activity / %
COc1ccc(C(=O)/C=C/c2cc(OC)c(OC)c(OC)c2)c(O)c1	92
COc1cc(OC)c(C(=O)/C=C/c2cc(OC)c(OC)cc2OC)c(OC)c1	53
COc1cccc(OC)c1/C=C/C(=O)c1c(OC)cc(OC)c(C2CCN(C)CC2)c1O	4

Q) Record request: Activity value, item COc1cccc(OC)c1/C=C/C(=O)c1c(OC)cccc1OC
A) 94

Q) Record request: Activity value, item COc1cc(OC)c(/C=C/C(=O)c2ccc(OC)c(OC)c2)c(OC)c1
A) 91

Q) Record request: Activity value, item COc1cc(OC)c(C(=O)/C=C/c2ccc(OC)c(O)c2)c(OC)c1
A) 40

Q) Record request: Activity value, item COc1cc(OC)c(C(=O)/C=C/c2ccccc2OC)c(OC)c1
A) 48

Q) Record request: Activity value, item COc1ccc(C(=O)/C=C/c2c(OC)cc(OC)cc2OC)c(O)c1
A) 95

Q) Record request: Activity value, item COc1cc(OC)c(OC)cc1/C=C/C(=O)c1cc(OC)c(OC)cc1OC
A) 66

Q) Record request: Activity value, item COc1ccc(C(=O)/C=C/c2c(OC)cc(OC)cc2OC)c(OC)c1
A) 76

Q) Record request: Activity value, item COc1cc(O)c(C(=O)/C=C/c2c(OC)cccc2OC)c(OC)c1
A) 81

====

# Activity listing for each entry below
Target: Phosphatidylinositol 4,5-bisphosphate 3-kinase catalytic subunit delta isoform (Homo sapiens)
Sequence (whole entry): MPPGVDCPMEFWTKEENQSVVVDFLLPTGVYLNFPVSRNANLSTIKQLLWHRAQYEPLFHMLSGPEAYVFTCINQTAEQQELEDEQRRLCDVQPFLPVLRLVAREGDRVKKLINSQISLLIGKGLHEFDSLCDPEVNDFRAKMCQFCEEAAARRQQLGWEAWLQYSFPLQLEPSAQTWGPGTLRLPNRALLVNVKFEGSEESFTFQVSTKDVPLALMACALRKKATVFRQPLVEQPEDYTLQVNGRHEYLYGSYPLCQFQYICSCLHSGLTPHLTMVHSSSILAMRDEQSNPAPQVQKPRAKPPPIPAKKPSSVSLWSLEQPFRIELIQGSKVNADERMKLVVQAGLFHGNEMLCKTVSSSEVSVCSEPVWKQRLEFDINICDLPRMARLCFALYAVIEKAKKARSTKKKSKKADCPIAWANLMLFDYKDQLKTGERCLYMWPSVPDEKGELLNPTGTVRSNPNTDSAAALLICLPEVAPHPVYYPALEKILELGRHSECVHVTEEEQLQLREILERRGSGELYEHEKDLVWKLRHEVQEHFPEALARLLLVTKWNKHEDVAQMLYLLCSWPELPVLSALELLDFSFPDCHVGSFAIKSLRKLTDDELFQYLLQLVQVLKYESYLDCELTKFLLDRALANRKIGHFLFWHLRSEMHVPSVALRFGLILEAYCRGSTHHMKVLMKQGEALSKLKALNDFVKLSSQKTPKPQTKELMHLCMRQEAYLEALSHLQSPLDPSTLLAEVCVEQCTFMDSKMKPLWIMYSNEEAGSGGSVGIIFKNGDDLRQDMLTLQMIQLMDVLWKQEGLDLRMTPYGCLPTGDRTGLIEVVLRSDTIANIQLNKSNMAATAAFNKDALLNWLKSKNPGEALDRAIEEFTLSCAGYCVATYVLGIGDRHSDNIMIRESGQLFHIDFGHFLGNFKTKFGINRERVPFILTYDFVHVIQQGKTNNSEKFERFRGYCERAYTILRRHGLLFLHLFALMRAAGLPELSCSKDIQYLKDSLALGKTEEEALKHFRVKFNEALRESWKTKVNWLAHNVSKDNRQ
Experiment: Inhibition of PI3Kdelta in human basophils assessed as reduction in IgE-induced degranulation by measuring CD203c expression level at 100 uM by fluorescence assay relative to control
Parameters: scale not given: the % may be the effect or the level left
Output spec: scalar in %, unitless text.

smiles.data	Activity [%]
COc1cccc(/C=C/C(=O)c2c(OC)cccc2OC)c1	82
COc1cc(OC)c(/C=C/C(=O)c2c(OC)cccc2OC)c(OC)c1	81

Q) Record request: Activity value, item COc1ccc(C(=O)/C=C/c2c(OC)cc(OC)cc2OC)c(O)c1
A) 91

Q) Record request: Activity value, item COc1cc(OC)c(C(=O)/C=C/c2ccccc2OC)c(OC)c1
A) 65

Q) Record request: Activity value, item COc1cc(OC)c(/C=C/C(=O)c2c(OC)cc(N)cc2OC)c(OC)c1
A) 75

Q) Record request: Activity value, item COc1cc(OC)c(OC)cc1/C=C/C(=O)c1cc(OC)c(OC)cc1OC
A) 70

====

Molecular target: Phosphatidylinositol 4,5-bisphosphate 3-kinase catalytic subunit delta isoform (Homo sapiens)
Sequence (whole entry): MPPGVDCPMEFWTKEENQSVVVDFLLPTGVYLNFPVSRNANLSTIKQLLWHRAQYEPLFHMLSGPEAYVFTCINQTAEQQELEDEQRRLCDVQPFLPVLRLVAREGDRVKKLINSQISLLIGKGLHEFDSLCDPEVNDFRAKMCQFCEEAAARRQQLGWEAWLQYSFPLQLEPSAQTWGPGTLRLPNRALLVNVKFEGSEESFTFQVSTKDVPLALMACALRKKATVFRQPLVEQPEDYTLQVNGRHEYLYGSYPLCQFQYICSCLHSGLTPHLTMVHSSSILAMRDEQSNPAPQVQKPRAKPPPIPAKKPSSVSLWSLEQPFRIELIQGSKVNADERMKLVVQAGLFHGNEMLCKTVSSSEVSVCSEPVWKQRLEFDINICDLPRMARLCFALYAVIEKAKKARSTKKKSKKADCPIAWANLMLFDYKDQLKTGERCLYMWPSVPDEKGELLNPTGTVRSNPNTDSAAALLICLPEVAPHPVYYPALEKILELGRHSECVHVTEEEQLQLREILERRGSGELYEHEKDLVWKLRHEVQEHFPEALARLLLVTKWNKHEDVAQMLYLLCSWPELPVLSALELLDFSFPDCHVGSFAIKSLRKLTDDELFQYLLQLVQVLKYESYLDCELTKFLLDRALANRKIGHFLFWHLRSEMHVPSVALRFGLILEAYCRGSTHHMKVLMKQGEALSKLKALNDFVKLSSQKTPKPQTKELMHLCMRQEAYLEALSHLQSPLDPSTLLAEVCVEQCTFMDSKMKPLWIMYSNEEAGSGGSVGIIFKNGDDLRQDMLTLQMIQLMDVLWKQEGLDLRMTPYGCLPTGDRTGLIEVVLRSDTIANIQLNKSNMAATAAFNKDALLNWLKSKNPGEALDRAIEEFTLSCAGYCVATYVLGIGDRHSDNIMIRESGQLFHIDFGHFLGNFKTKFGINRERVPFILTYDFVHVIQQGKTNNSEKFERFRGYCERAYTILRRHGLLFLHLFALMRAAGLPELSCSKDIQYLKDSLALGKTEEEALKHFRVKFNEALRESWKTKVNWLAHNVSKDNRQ
Assay: Inhibition of PI3Kdelta in human basophils assessed as reduction in IgE-induced degranulation by measuring CD63 expression level at 100 uM by flow cast assay relative to control
Set-up: scale not given: the % may be the effect or the level left
# Activity listing for each entry below
Output spec: scalar in %, unitless text.

Check out these entries, answers already filled in.
smiles.data	measurement.units	Activity
COc1cccc(OC)c1C(=O)/C=C/c1ccc(C(F)(F)F)cc1	%	64
COc1cc(OC)c(/C=C/C(=O)c2c(OC)cc(OC)cc2OC)c(OC)c1	%	67
COc1cc(OC)c(/C=C/C(=O)c2c(OC)cc(N)cc2OC)c(OC)c1	%	63
COc1cccc(/C=C/C(=O)c2c(OC)cccc2OC)c1	%	100
COc1ccccc1/C=C/C(=O)c1cc(OC)c(OC)cc1OC	%	55
COc1cc(OC)c(/C=C/C(=O)c2c(OC)cccc2OC)c(OC)c1	%	78

Q) Record request: Activity value, item COc1cc(OC)c(C2CCN(C)CC2)c(O)c1C(=O)/C=C/c1c(Cl)cccc1Cl
A) 6

Q) Record request: Activity value, item COc1ccc(/C=C/C(=O)c2cc(OC)c(OC)cc2OC)cc1O
A) 49
